// data source = ChEMBL document CHEMBL3991601

- experimental.target: Calcium/calmodulin-dependent protein kinase type II subunit gamma (Homo sapiens, UniProt Q13555); also: in the data inactive means no Kd found up to 30 µM
- Sequence (Q13555 whole entry): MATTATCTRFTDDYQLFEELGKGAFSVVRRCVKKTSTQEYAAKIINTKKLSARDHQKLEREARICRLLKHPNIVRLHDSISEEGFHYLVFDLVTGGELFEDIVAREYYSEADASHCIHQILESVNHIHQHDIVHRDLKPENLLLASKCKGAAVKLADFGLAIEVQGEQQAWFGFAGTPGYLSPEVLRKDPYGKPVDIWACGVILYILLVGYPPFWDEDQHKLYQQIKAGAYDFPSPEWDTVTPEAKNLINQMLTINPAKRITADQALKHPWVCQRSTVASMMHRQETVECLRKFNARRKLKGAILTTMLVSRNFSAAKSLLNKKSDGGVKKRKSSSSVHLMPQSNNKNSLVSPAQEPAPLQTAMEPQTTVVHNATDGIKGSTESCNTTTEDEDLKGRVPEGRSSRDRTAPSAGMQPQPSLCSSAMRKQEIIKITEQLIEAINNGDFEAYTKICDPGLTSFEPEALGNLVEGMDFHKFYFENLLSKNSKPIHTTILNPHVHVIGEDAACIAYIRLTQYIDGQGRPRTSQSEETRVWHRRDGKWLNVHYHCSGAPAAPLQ
Active and inactive are the calls of the source.
Return exactly one item of YES = active, NO = inactive

compound	discrete.label
Cc1nc(Nc2n[nH]c3c2CN(C(=O)N[C@H](CN(C)C)c2ccccc2)C3(C)C)c2sccc2n1 [PF-03758309]	YES
CC(C)(C)c1nc(-c2cccc(NS(=O)(=O)c3c(F)cccc3F)c2F)c(-c2ccnc(N)n2)s1 [DABRAFENIB]	NO
NC(=O)Nc1cc(-c2cccc(F)c2)sc1C(=O)N[C@H]1CCCNC1 [AZD-7762]	NO

Q: Dear all, I need the recorded test outcome for COCc1c(-c2ccc(NC(=O)Nc3cc(C(F)(F)F)ccc3F)c(F)c2)c2c(N)ncnn2c1CN1CCOCC1 , thank you.
A: NO

Q: Dear all, I need the recorded test outcome for CO[C@H]1C[C@@H]2CC[C@@H](C)[C@@](O)(O2)C(=O)C(=O)N2CCCC[C@H]2C(=O)O[C@H]([C@H](C)C[C@@H]2CC[C@@H](O)[C@H](OC)C2)CC(=O)[C@H](C)/C=C(\C)[C@@H](O)[C@@H](OC)C(=O)[C@H](C)C[C@H](C)/C=C/C=C/C=C/1C [SIROLIMUS] , thank you.
A: NO

Q: Dear all, I need the recorded test outcome for Cc1cnc(NC(=O)Nc2cc(Br)c(C)cc2OC[C@@H]2CNCCO2)cn1 [RABUSERTIB] , thank you.
A: NO

Q: Dear all, I need the recorded test outcome for CCn1c(C(=O)N(C2CC2)C2CC2)cc2c3c(ncn3C)c(Nc3cc(C)n(C)n3)nc21 [BMS-911543] , thank you.
A: NO

Q: Dear all, I need the recorded test outcome for COc1cc2c(Nc3ccc(Cl)c(Cl)c3F)ncnc2cc1OC[C@@H]1C[C@@H]2CN(C)C[C@@H]2C1 [TESEVATINIB] , thank you.
A: NO
